System: Staphylococcus aureus
Experiment: Antibacterial activity against Staphylococcus aureus ATCC 29213 after 20 hrs by CLSI based-broth microdilution method
Assay type: functional
Details: ATCC 29213, 20 h
Would you mind telling me the reported MIC of each entry?
Answers are plain numbers, in µg/mL.

# example entries with known answers
- givenSmiles: "O=C(O)c1ccc(Cl)cc1NCc1ccc(Sc2ccc(Cl)c(Cl)c2)c([N+](=O)[O-])c1"
  unitTag: "µg/mL"
  MIC: 4
- givenSmiles: "O=C(O)c1cccc(NCc2ccc(Sc3ccc(Cl)c(Cl)c3)c([N+](=O)[O-])c2)c1"
  unitTag: "µg/mL"
  MIC: 8
- givenSmiles: "O=C(O)c1ccccc1C(=O)c1ccc(Sc2ccc(Cl)c(Cl)c2)c([N+](=O)[O-])c1"
  unitTag: "µg/mL"
  MIC: 16
- givenSmiles: "O=C(O)c1ccccc1NCc1ccc(Sc2ccc(Cl)c(Cl)c2)c([N+](=O)[O-])c1"
  unitTag: "µg/mL"
  MIC: 4
- givenSmiles: "O=C(O)c1ccc(Cl)c(NCc2ccc(Sc3ccc(Cl)c(Cl)c3)c([N+](=O)[O-])c2)c1"
  unitTag: "µg/mL"
  MIC: 8

Quick request: MIC for each listed item, please.
1. O=C(O)c1c(Cl)cccc1NCc1ccc(Sc2ccc(Cl)c(Cl)c2)c([N+](=O)[O-])c1
2. CO[C@H]1/C=C/O[C@@]2(C)Oc3c(C)c(O)c4c(O)c(c(/C=N/N5CCN(C)CC5)c(O)c4c3C2=O)NC(=O)/C(C)=C\C=C\[C@H](C)[C@H](O)[C@@H](C)[C@@H](O)[C@@H](C)[C@H](OC(C)=O)[C@@H]1C

result:
8
0.03

====

Would you mind telling me the reported MIC of each entry?
Tested on: Staphylococcus epidermidis
Experiment: Antibacterial activity against Staphylococcus epidermidis ATCC 12228 after 20 hrs by CLSI based-broth microdilution method
Format: functional
Settings: ATCC 12228, 20 h
Give bare numbers, in µg/mL.

# example entries with known answers
- givenSmiles: "O=C(O)c1ccc(Cl)c(NCc2ccc(Sc3ccc(Cl)c(Cl)c3)c([N+](=O)[O-])c2)c1"
  unitTag: "µg/mL"
  experimentalValue: 4
- givenSmiles: "O=C(O)c1ccccc1C(=O)c1ccc(Sc2ccc(Cl)c(Cl)c2)c([N+](=O)[O-])c1"
  unitTag: "µg/mL"
  experimentalValue: 16
- givenSmiles: "O=C(O)c1cccc(NCc2ccc(Sc3ccc(Cl)c(Cl)c3)c([N+](=O)[O-])c2)c1"
  unitTag: "µg/mL"
  experimentalValue: 8

Consider the additional molecule presented here.
Entry O=C(O)c1ccc(Cl)cc1NCc1ccc(Sc2ccc(Cl)c(Cl)c2)c([N+](=O)[O-])c1 — recorded MIC = 2

====

System: Staphylococcus epidermidis
Assay: Antibacterial activity against Staphylococcus epidermidis ATCC 12228 after 20 hrs by CLSI based-broth microdilution method
Assay type: functional
Conditions: ATCC 12228, 20 h
experimentalEndpoint: MIC (µg/mL)
Give bare numbers, in µg/mL.

# example entries with known answers
- givenSmiles: "O=C(O)c1c(Cl)cccc1NCc1ccc(Sc2ccc(Cl)c(Cl)c2)c([N+](=O)[O-])c1"
  unitTag: "µg/mL"
  MIC: 4
- givenSmiles: "O=C(O)c1ccccc1NCc1ccc(Sc2ccc(Cl)c(Cl)c2)c([N+](=O)[O-])c1"
  unitTag: "µg/mL"
  MIC: 4

Entry CO[C@H]1/C=C/O[C@@]2(C)Oc3c(C)c(O)c4c(O)c(c(/C=N/N5CCN(C)CC5)c(O)c4c3C2=O)NC(=O)/C(C)=C\C=C\[C@H](C)[C@H](O)[C@@H](C)[C@@H](O)[C@@H](C)[C@H](OC(C)=O)[C@@H]1C — recorded MIC = 0.03
